Target: JAK2 (Homo sapiens (Human))
Sequence (O60674 849-1124): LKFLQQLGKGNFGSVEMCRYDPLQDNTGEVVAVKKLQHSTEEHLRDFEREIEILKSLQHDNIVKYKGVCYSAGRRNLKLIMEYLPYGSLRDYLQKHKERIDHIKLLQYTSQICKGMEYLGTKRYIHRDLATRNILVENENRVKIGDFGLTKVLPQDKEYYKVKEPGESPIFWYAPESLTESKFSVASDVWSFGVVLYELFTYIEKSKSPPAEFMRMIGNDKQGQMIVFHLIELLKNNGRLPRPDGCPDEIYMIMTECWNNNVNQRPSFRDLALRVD
Test: Jak Biochemical HTRF Assay, JAK2
Conditions: HTRF biochemical assay, GST-tagged catalytic domain; top concentration tested […]
Hi there, I'd appreciate the recorded pIC50 for every entry that follows.
Answers are plain numbers, as −log10 of the molar value.

Provide each entry's pIC50 from the list below.
1. COCCOC(=O)N1CC(CC#N)(n2cc(C(N)=O)c(Nc3ccccc3)n2)C1 [Example 30-59]
2. COc1cncc(N2CCC(CC#N)(n3cc(C(N)=O)c(Nc4ccc(F)cc4)n3)CC2)c1 [Example 3-37]
3. Cc1ccc(CN2CCC(CC#N)(n3cc(C(N)=O)c(Nc4ccccc4)n3)CC2)cc1 [Example 21-7]

6.47
7.77
6.87

The values you see were collected from patent US9328099B2.
